- Measured Target: Diacylglycerol O-acyltransferase 1 (Mus musculus)
- Sequence (Q9Z2A7 whole entry): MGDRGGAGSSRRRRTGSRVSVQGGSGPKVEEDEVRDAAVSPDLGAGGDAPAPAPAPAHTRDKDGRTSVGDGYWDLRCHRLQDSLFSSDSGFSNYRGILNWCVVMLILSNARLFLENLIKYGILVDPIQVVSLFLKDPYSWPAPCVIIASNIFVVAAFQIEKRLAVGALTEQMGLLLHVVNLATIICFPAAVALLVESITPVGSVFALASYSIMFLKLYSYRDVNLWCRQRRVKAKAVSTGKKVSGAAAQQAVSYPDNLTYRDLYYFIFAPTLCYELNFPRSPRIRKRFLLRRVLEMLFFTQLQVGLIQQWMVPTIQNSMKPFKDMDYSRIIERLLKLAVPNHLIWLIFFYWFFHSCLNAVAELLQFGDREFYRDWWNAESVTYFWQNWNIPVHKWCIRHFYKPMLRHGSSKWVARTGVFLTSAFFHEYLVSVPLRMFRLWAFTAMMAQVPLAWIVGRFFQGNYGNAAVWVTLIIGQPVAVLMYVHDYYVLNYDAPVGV
Assay Endpoint: pIC50
In plain terms, pIC50 is the concentration in mol/L turned into minus its base-10 logarithm.

Ask: Return pIC50 measured with Diacylglycerol O-acyltransferase 1 (Mus musculus) given this compound: O=C(O)CC1COC2(CCN(c3ccc(-c4nc5cc(C(F)(F)F)ccc5[nH]4)cn3)CC2)C1 (racemic)
Result: 6.75

* * *

Each item that follows carries a reported solubility.
- Method Notes: Solubility of the compound at pH 2
- Type: physicochemical
- Test Conditions: buffer
Quick note: give the figure in µM, leave out the unit.

Check out these entries, answers already filled in.
O=C(O)CC1CCOC2(CCN(c3ccc(-c4nc5cc(C(F)(F)F)ccc5[nH]4)cn3)CC2)C1 (stereo in doubt; form 2) : 169
O=C(O)CC1CCC2(CCN(c3ccc(-c4nc5cc(C(F)(F)F)ccc5[nH]4)cn3)CC2)O1 (single isomer, unassigned; form 2) : 163

Query compound follows.
Ask: Please look up its solubility: O=C(O)CC1CCOC2(CCN(c3ccc(-c4nc5cc(C(F)(F)F)ccc5[nH]4)cn3)CC2)C1 (stereo in doubt; form 1)
Result: 173
